Target Under Test: hERG (KCNH2) potassium channel (Homo sapiens)
Sequence (Q12809 whole entry): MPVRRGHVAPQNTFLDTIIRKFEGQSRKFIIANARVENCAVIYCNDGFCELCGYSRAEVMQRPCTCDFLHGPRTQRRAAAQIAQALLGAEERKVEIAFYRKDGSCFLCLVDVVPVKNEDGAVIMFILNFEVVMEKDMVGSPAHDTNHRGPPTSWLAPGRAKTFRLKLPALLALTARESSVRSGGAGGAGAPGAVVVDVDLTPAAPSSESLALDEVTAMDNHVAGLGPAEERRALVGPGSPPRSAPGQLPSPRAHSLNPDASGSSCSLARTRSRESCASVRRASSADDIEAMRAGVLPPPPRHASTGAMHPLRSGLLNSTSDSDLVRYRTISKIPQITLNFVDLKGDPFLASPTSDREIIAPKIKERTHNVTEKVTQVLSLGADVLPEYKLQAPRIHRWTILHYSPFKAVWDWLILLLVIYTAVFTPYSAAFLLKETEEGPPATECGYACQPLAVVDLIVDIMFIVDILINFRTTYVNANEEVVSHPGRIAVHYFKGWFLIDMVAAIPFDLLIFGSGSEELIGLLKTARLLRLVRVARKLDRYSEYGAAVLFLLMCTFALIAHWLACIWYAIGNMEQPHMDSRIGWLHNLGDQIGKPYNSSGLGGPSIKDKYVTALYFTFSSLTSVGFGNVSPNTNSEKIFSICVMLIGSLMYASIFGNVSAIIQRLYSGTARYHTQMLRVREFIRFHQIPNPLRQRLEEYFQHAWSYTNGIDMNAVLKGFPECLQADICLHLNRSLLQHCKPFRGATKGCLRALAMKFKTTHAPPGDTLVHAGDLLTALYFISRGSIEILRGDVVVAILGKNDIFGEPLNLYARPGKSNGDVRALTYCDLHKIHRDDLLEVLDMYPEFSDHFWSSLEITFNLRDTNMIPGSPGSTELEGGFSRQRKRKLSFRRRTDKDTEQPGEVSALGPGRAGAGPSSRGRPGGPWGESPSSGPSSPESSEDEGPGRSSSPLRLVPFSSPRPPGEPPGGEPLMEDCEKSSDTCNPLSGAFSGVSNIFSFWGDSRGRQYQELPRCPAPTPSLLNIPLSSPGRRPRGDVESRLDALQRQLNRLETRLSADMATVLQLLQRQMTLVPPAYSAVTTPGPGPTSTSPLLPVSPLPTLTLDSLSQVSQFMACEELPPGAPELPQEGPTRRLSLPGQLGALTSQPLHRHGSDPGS
Experiment Notes: in vitro
Recorded Conditions: CHO cells expressing human cloned ERG
Kindly supply the reported inhibition at 1 µM values for the records listed here.
Numbers only, in %.

# Smiles Input, Target Under Test, inhibition at 1 µM / %
data = [
    ("O=S(=O)(NCCCCN1CCN(c2noc3ccccc23)CC1)c1cnc2ccccn12", "hERG (KCNH2) potassium channel (Homo sapiens)", 13),
    ("O=S(=O)(NCCCN1CCC(c2noc3cc(F)ccc23)CC1)c1cnc2ccccn12", "hERG (KCNH2) potassium channel (Homo sapiens)", 28),
    ("O=S(=O)(NCCCN1CCC(c2noc3cc(F)ccc23)CC1)c1ccc(F)c(Cl)c1", "hERG (KCNH2) potassium channel (Homo sapiens)", 32),
    ("O=S(=O)(NCCCN1CCN(c2noc3ccccc23)CC1)c1ccc(F)c(Cl)c1", "hERG (KCNH2) potassium channel (Homo sapiens)", 33),
    ("O=S(=O)(NCCCCN1CCN(c2noc3ccccc23)CC1)c1ccc2cc(Cl)ccc2c1", "hERG (KCNH2) potassium channel (Homo sapiens)", 9),
]

Each of the following entries comes with a recorded value; kindly state inhibition at 1 µM for each.
1. O=S(=O)(NCCCN1CCN(c2nsc3ccccc23)CC1)c1ccc(Cl)c(Cl)c1
2. O=S(=O)(NCCCN1CCN(c2noc3ccccc23)CC1)c1ccc2cc(Cl)ccc2c1

Result:
1. 21
2. 14

====

Kindly supply the reported pKi values for the records listed here.
Target Under Test: D(2) dopamine receptor (Homo sapiens, UniProt P14416)
Sequence (P14416 whole entry): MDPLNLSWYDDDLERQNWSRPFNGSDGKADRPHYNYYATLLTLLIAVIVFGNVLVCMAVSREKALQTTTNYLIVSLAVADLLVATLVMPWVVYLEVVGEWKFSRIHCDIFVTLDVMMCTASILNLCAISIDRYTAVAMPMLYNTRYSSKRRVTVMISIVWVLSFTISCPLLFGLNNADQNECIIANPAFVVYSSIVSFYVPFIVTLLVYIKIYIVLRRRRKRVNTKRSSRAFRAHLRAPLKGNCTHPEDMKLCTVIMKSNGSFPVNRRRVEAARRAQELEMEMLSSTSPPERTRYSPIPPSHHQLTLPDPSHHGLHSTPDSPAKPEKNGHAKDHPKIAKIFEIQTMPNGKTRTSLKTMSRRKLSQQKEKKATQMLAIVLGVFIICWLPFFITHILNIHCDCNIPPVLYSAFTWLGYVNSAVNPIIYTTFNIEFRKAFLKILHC
Experiment Notes: biochemical
Give bare numbers, as −log10 of the molar value.

For orientation, consider the following solved cases.
# Smiles Input, pKi
data = [
    ("O=S(=O)(NCCCN1CCC(c2noc3cc(F)ccc23)CC1)c1ccc2cc(Cl)ccc2c1", 7.64),
    ("O=S(=O)(NCCCN1CCN(c2noc3ccccc23)CC1)c1ccc2ccccc2c1", 5.14),
    ("O=S(=O)(NCCCCN1CCN(c2noc3ccccc23)CC1)c1cc2ccccc2s1", 5.89),
    ("O=S(=O)(NCCCN1CCC(c2noc3cc(F)ccc23)CC1)c1cc2ccccc2s1", 7.96),
    ("O=S(=O)(NCCCN1CCC(c2noc3cc(F)ccc23)CC1)c1csc2ccccc12", 7.44),
]

Each of the following entries comes with a recorded value; kindly state pKi for each.
1. O=S(=O)(NCCN1CCC(c2noc3cc(F)ccc23)CC1)c1cccc2ccccc12
2. O=S(=O)(NCCCN1CCN(c2nsc3ccccc23)CC1)c1cnc2ccccn12
3. O=S(=O)(NCCCCN1CCN(c2nsc3ccccc23)CC1)c1cccc2scnc12
4. O=S(=O)(NCCCN1CCN(c2nsc3ccccc23)CC1)c1ccc(F)c(Cl)c1
5. O=S(=O)(NCCCN1CCN(c2nsc3ccccc23)CC1)c1ccc(OC(F)(F)F)cc1

Result:
8.04
7.59
7.80
7.43
7.57

====

Target Under Test: 5-hydroxytryptamine receptor 2A (Homo sapiens, UniProt P28223)
Sequence (P28223 whole entry): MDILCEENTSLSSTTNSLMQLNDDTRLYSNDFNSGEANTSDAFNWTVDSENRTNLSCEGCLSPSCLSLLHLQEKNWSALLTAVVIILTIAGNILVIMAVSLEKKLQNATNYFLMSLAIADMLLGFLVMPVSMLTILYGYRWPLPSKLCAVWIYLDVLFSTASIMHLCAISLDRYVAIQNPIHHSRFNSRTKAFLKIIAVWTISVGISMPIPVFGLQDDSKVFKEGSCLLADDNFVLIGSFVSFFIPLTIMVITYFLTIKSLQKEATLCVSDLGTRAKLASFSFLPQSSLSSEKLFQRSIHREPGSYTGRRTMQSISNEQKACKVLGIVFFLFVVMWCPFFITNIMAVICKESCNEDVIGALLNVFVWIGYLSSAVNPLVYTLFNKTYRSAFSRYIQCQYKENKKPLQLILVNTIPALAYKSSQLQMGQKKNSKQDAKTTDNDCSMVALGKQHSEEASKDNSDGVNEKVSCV
Experiment Notes: biochemical
Type: cell-based, CHO-K1
Kindly supply the reported Ki values for the records listed here.
Numbers only, in nM.

# Smiles Input, Assay Readout, Measured Number
data = [
    ("O=S(=O)(NCCCCN1CCN(c2nsc3ccccc23)CC1)c1cc2ccc(Cl)cc2s1", "Ki", 6.5),
]

Each of the following entries comes with a recorded value; kindly state Ki for each.
1. O=S(=O)(NCCCCN1CCC(c2noc3cc(F)ccc23)CC1)c1cccc2scnc12
2. O=S(=O)(NCCCN1CCN(c2nsc3ccccc23)CC1)c1cnc2ccccn12

Result:
1: 8.5; 2: 12

Each of the following entries comes with a recorded value; kindly state Ki for each.
1. O=S(=O)(NCCCCN1CCC(c2noc3cc(F)ccc23)CC1)c1cnc2ccccn12
2. O=S(=O)(NCCCCN1CCN(c2nsc3ccccc23)CC1)c1cccc2scnc12

Result:
9.5
7.5

====

Target Under Test: 5-hydroxytryptamine receptor 6 (Homo sapiens)
Sequence (P50406 whole entry): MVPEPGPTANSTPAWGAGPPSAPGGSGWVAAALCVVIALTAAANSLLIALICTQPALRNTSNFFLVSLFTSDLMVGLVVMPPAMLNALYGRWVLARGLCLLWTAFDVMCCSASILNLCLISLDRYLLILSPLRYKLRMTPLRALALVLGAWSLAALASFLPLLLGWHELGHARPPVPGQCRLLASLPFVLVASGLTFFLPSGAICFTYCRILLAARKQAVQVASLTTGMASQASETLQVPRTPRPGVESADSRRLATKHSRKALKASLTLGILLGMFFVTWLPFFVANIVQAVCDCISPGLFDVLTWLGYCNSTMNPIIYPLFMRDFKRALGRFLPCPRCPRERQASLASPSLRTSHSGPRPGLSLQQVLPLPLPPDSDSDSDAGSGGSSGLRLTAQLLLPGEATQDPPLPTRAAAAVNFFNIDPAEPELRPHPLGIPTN
Experiment Notes: biochemical
Assay Readout: pKi
Answers are plain numbers, as −log10 of the molar value.

For orientation, consider the following solved cases.
# Smiles Input, Target Under Test, pKi
records = [
    ("O=S(=O)(NCCCCN1CCN(c2nsc3ccccc23)CC1)c1cnc2ccccn12", "5-hydroxytryptamine receptor 6 (Homo sapiens)", 6.85),
    ("O=S(=O)(NCCCN1CCC(c2noc3cc(F)ccc23)CC1)c1ccc2cc(Cl)ccc2c1", "5-hydroxytryptamine receptor 6 (Homo sapiens)", 7.59),
    ("O=S(=O)(NCCCCN1CCN(c2noc3ccccc23)CC1)c1ccc2ccccc2c1", "5-hydroxytryptamine receptor 6 (Homo sapiens)", 8.21),
]

Each of the following entries comes with a recorded value; kindly state pKi for each.
1. O=S(=O)(NCCCN1CCN(c2noc3ccccc23)CC1)c1ccc2cc(Cl)ccc2c1
2. O=S(=O)(NCCCCN1CCN(c2nsc3ccccc23)CC1)c1ccc(OC(F)(F)F)cc1
3. Cc1c(S(=O)(=O)NCCCCN2CCC(c3noc4cc(F)ccc34)CC2)sc2ccc(Cl)cc12
4. O=S(=O)(NCCCCN1CCC(c2noc3cc(F)ccc23)CC1)c1csc2ccccc12
5. O=S(=O)(NCCCCN1CCN(c2noc3ccccc23)CC1)c1ccc(F)c(Cl)c1
6. O=S(=O)(NCCCN1CCN(c2nsc3ccccc23)CC1)c1ccc(OC(F)(F)F)cc1
7. Cc1c(S(=O)(=O)NCCCCN2CCN(c3noc4ccccc34)CC2)sc2ccc(F)cc12

Result:
5.64
7.33
8.74
7.89
7.57
7.25
7.77

Each of the following entries comes with a recorded value; kindly state pKi for each.
1. O=S(=O)(NCCCCN1CCC(c2noc3cc(F)ccc23)CC1)c1cc2ccc(Cl)cc2s1
2. O=S(=O)(NCCCN1CCC(c2noc3cc(F)ccc23)CC1)c1csc2ccccc12

Result:
8.48
7.89

Each of the following entries comes with a recorded value; kindly state pKi for each.
1. Cc1cccc(S(=O)(=O)NCCN2CCN(c3nsc4ccccc34)CC2)c1
2. O=S(=O)(NCCCCN1CCC(c2noc3cc(F)ccc23)CC1)c1ccc(F)c(Cl)c1
3. O=S(=O)(NCCCN1CCN(c2noc3ccccc23)CC1)c1cc2ccccc2s1
4. O=S(=O)(NCCCCN1CCC(c2noc3cc(F)ccc23)CC1)c1ccc(Cl)c(Cl)c1
5. O=S(=O)(NCCCN1CCN(c2nsc3ccccc23)CC1)c1ccc2ccccc2c1
6. O=S(=O)(NCCCCN1CCN(c2noc3ccccc23)CC1)c1cc2ccccc2s1
7. O=S(=O)(NCCCCN1CCC(c2noc3cc(F)ccc23)CC1)c1ccc2ccccc2c1
8. O=S(=O)(NCCCN1CCN(c2nsc3ccccc23)CC1)c1cccc2scnc12

Result:
1. 6.37
2. 7.32
3. 7.46
4. 7.59
5. 7.40
6. 5.96
7. 8.62
8. 7.57

Each of the following entries comes with a recorded value; kindly state pKi for each.
1. O=S(=O)(NCCCCN1CCC(c2noc3cc(F)ccc23)CC1)c1cccc2ccccc12
2. O=S(=O)(NCCCCN1CCC(c2noc3cc(F)ccc23)CC1)c1cnc2ccccn12
3. Cc1cccc(S(=O)(=O)NCCCN2CCN(c3noc4ccccc34)CC2)c1

Result:
1. 8.06
2. 7.00
3. 5.82

Each of the following entries comes with a recorded value; kindly state pKi for each.
1. O=S(=O)(NCCCCN1CCN(c2nsc3ccccc23)CC1)c1cccc2scnc12
2. O=S(=O)(NCCCCN1CCN(c2nsc3ccccc23)CC1)c1ccc(F)c(Cl)c1

Result:
6.92
7.28

====

Target Under Test: 5-hydroxytryptamine receptor 2A (Homo sapiens)
Experiment Notes: biochemical
Type: cell-based, CHO-K1
Kindly supply the reported pKi values for the records listed here.
One number for each entry, as −log10 of the molar value.

For orientation, consider the following solved cases.
# Smiles Input, Target Under Test, pKi
data = [
    ("O=S(=O)(NCCCN1CCN(c2nsc3ccccc23)CC1)c1ccc2ccccc2c1", "5-hydroxytryptamine receptor 2A (Homo sapiens)", 8.00),
    ("O=S(=O)(NCCCN1CCN(c2nsc3ccccc23)CC1)c1cccc2scnc12", "5-hydroxytryptamine receptor 2A (Homo sapiens)", 8.08),
    ("O=S(=O)(NCCCN1CCC(c2noc3cc(F)ccc23)CC1)c1cccc2scnc12", "5-hydroxytryptamine receptor 2A (Homo sapiens)", 8.04),
    ("O=S(=O)(NCCCN1CCN(c2nsc3ccccc23)CC1)c1ccc(F)c(Cl)c1", "5-hydroxytryptamine receptor 2A (Homo sapiens)", 7.85),
    ("O=S(=O)(NCCCCN1CCN(c2nsc3ccccc23)CC1)c1ccc(Cl)c(Cl)c1", "5-hydroxytryptamine receptor 2A (Homo sapiens)", 7.92),
]

Next:
Problem: Look up and state reported pKi for O=S(=O)(NCCCCN1CCC(c2noc3cc(F)ccc23)CC1)c1ccc(F)c(Cl)c1
Result: 8.05

====

Target Under Test: D(2) dopamine receptor (Homo sapiens, UniProt P14416)
Experiment Notes: biochemical
Kindly supply the reported pKi values for the records listed here.
One number for each entry, as −log10 of the molar value.

For orientation, consider the following solved cases.
# Smiles Input, pKi
data = [
    ("O=S(=O)(NCCCN1CCN(c2noc3ccccc23)CC1)c1ccc(OC(F)(F)F)cc1", 7.20),
    ("O=S(=O)(NCCCN1CCC(c2noc3cc(F)ccc23)CC1)c1cc2ccc(Cl)cc2s1", 7.57),
]

Each of the following entries comes with a recorded value; kindly state pKi for each.
1. O=S(=O)(NCCCCN1CCC(c2noc3cc(F)ccc23)CC1)c1csc2ccccc12
2. O=S(=O)(NCCCCN1CCN(c2nsc3ccccc23)CC1)c1ccc(OC(F)(F)F)cc1

Result:
7.66
7.32

Each of the following entries comes with a recorded value; kindly state pKi for each.
1. O=S(=O)(NCCCCN1CCN(c2noc3ccccc23)CC1)c1cccc2scnc12
2. O=S(=O)(NCCCCN1CCN(c2nsc3ccccc23)CC1)c1cnc2ccccn12
3. Cc1c(S(=O)(=O)NCCCCN2CCC(c3noc4cc(F)ccc34)CC2)sc2ccc(F)cc12
4. O=S(=O)(NCCCN1CCN(c2noc3ccccc23)CC1)c1cc2ccc(Cl)cc2s1
5. O=S(=O)(NCCCN1CCC(c2noc3cc(F)ccc23)CC1)c1ccc(F)c(Cl)c1
6. O=S(=O)(NCCCN1CCC(c2noc3cc(F)ccc23)CC1)c1ccc(Cl)c(Cl)c1
7. Cc1cccc(S(=O)(=O)NCCCCN2CCN(c3noc4ccccc34)CC2)c1

Result:
1: 6.77; 2: 7.34; 3: 8.72; 4: 7.52; 5: 8.43; 6: 7.85; 7: 7.36

Each of the following entries comes with a recorded value; kindly state pKi for each.
1. O=S(=O)(NCCN1CCC(c2noc3cc(F)ccc23)CC1)c1ccc2ccccc2c1
2. O=S(=O)(NCCCCN1CCC(c2noc3cc(F)ccc23)CC1)c1ccc(Cl)c(Cl)c1
3. O=S(=O)(NCCN1CCN(c2nsc3ccccc23)CC1)c1ccc2ccccc2c1
4. O=S(=O)(NCCCN1CCC(c2noc3cc(F)ccc23)CC1)c1cnc2ccccn12
5. O=S(=O)(NCCCCN1CCC(c2noc3cc(F)ccc23)CC1)c1ccc2cc(Cl)ccc2c1
6. O=S(=O)(NCCCN1CCN(c2nsc3ccccc23)CC1)c1ccc(Cl)c(Cl)c1
7. O=S(=O)(NCCCCN1CCC(c2noc3cc(F)ccc23)CC1)c1ccc2ccccc2c1
8. O=S(=O)(NCCCN1CCC(c2noc3cc(F)ccc23)CC1)c1cccs1

Result:
1. 8.28
2. 7.82
3. 7.74
4. 7.82
5. 9.00
6. 8.11
7. 8.96
8. 8.06

Each of the following entries comes with a recorded value; kindly state pKi for each.
1. O=S(=O)(NCCCCN1CCN(c2noc3ccccc23)CC1)c1ccc2cc(Cl)ccc2c1
2. Cc1cccc(S(=O)(=O)NCCCCN2CCN(c3nsc4ccccc34)CC2)c1

Result:
1. 7.29
2. 8.06
